Molecular target: P.1 Spike (SARS-CoV2)
Each item that follows carries a reported Kd.

Ab_18 scFv-Fc (scFv, V domains shown) VH: EVQLVQSGGGVVQPGRSLRVSCAASGFSFSRYGMHWVRQAPGKGLEWVAFIRHDGSKKYYADSVEGRFTISRDNSRNTVSLEMNSLRGEDTAVYYCAKDGRLEAALDDWGQGTLVTVSS VL: NFMLTQPHSMSGSAGKTVTVSCIRSSGSIANNFVQWYQQRPGSAPTTVIYEDNQRPSGVPDRFSGSIDSSSNSASLTISGLKTEDEADYYCQSYDSSNLVFGGGTRLTVL : 2.97 pM

Attention now shifts to the item below.
Query string: Reported Kd for Ab_16 scFv-Fc (scFv, V domains shown) VH: QVQLVQSGGGVVQPGRSLRLSCAASGFTFSNYGMHWVRQAPGKGLEWVALIWERGSKKDYADSVKGRFTVSRDNSKNTLYLQMNSLRPEDTAVYFCAREGISMTGAEYFQHWGQGTLVTVSS VL: QSVLTQPPSVSGSPGQRVTMSCTGSSSNIGAGYDVHWYQQVPGAAPRLLIYGTNNRPSGVPDRFSGSKSGTSASLTITGLQAEDEADYYCQSYDNSLTDPYVFGTGTKVTVL : what is it?
Result string: 7.93 pM
